abundance fitness values for the variants below.
B1: Double-stranded RNA-binding protein Staufen homolog 1, residues 183 to 249; numbered along this chain, O95793 (parent)
chain: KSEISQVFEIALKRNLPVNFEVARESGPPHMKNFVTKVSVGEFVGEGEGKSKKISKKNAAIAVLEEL

variants of: B1; assay: abundance fitness (aPCA) (normalised: wild type 0, dead -1); higher = more abundant; growth selection in yeast, the domain comes from the species named; conditions: Homo sapiens
parameter: abundance fitness

> print(dat)
    variant.id          parameter  value.observed
 1        K13P  abundance fitness          -0.528
 2        T36A  abundance fitness          -0.251
 3        V22E  abundance fitness          -0.033
 4        A62R  abundance fitness          -0.121
 5        M31W  abundance fitness          -0.208
 6         F8P  abundance fitness          -0.457
 7         E3K  abundance fitness          -0.194
 8        S39Y  abundance fitness          -0.051
 9         V7R  abundance fitness          -0.631
10        S51V  abundance fitness          -0.615
11        R24L  abundance fitness          -0.129
12         E3Q  abundance fitness          -0.247
13        K13M  abundance fitness          -0.213
14        G47Y  abundance fitness          -0.945
15        M31K  abundance fitness           0.104
16        I54P  abundance fitness          -0.724
17        M31C  abundance fitness           0.073
18        K50W  abundance fitness          -0.221
19        P29S  abundance fitness           -0.04
20        R24H  abundance fitness          -0.118
21        S39W  abundance fitness          -0.119
22        E46Y  abundance fitness          -0.013
23        I61S  abundance fitness          -0.045
24        H30G  abundance fitness          -0.017
25        M31F  abundance fitness          -0.263
26        N33T  abundance fitness           0.052
27        V18A  abundance fitness          -0.377
28         S2F  abundance fitness          -0.709
29        V44E  abundance fitness          -0.132
30        E65I  abundance fitness          -0.573
31         V7H  abundance fitness          -0.857
32        V35A  abundance fitness          -0.256
33        S51H  abundance fitness              -1
34        K57T  abundance fitness            0.17
35        E66P  abundance fitness          -0.235
36        A62T  abundance fitness          -0.381
37        I61M  abundance fitness          -0.095
38         K1Y  abundance fitness          -0.211
39        E42L  abundance fitness          -0.255
40        E65K  abundance fitness           0.118
41        A62Q  abundance fitness          -0.086
42        K13T  abundance fitness          -0.246
43        A62M  abundance fitness          -0.226
44        A62I  abundance fitness          -0.384
45        E65A  abundance fitness          -0.038
46        G47E  abundance fitness          -0.773
